test system: H1 or H9 human embryonic stem cells; experiment: Activin A bioassay: differentiation of human embryonic stem cells to definitive endoderm, cell number and SOX17 intensity by high content analysis (96-well, four days); type: cell-based; conditions: supernatant concentration 10x, assay dilution 1:20;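 also: total fluorescence of the cell multiplied by cell area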
The entries below come with measured Sox 17 Intensity average values attached.
Format: numeric value only, no unit, no commentary.

molecule	quantity_name	numeric_value
ACTN89: activin A variant peptide, SEQ ID 90 (protein) GLECDGKVNICCKKQLFGQTKDIGWNDWIIAPSGYHGGGCSGECPSHIAGTSGSSLSFHSTVINHYRMRGHSPNANLKSCCSPTKLRPMSMLYYDDGQNIIKKDIQNMKVEECGCT	Sox 17 Intensity average	5.77E+05

# input for lookup
Measured Sox 17 Intensity average, ACTN2: activin A variant peptide, SEQ ID 3 (protein) GLECDGKVNLCCKKQNFVSFKDIGWNDWIIAPSGYHANECTGKCPSHIAGTSGSSLSFHSTVINHYRMRGHSPFSDLGSCCIPTKLRPMSMLYYDDGQNIIKKDIQNMIVEECGCS : 2.299E+07
